A collection of compounds and their measured GI50
system: Ri-1 cells; assay: BTK (wt) cell proliferation, Ri-1 (CellTiter-Glo, 72 h); type: cell-based; settings: Ri-1 cells, 72 h, CellTiter-Glo; read-out: BTK WT Ri-1 GI50;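 further: viable cells quantified as cellular ATP luminescence, proliferation normalized to a time-zero plate and the DMSO control, compounds tested across a dilution series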
Enter your answer as a number in nM; do not include the unit.

Some compounds with known GI50 results, for comparison:
{"COMPOUND": "C=CC(=O)Nc1cc(Nc2nccc(Nc3cc(Cl)c(F)cc3C(C)(O)CC)n2)c(OC)cc1N1CC[C@@H](N(C)C)C1 (single isomer, unassigned) [Compound 76]", "OBSERVED VALUE": 5.93}
{"COMPOUND": "C=CC(=O)Nc1cc(Nc2nccc(Nc3cc(Cl)c(F)cc3C(C)(O)CC)n2)c(OC)cc1N1CC[C@@H](N(C)C)C1 (single isomer, unassigned) [Compound 77]", "OBSERVED VALUE": 1.55}

-- ask Reported GI50 for C=CC(=O)Nc1cc(Nc2ncnc(Nc3cc(Cl)c(F)cc3C(C)(O)CC)n2)c(OC)cc1N1CC[C@@H](N(C)C)C1 (single isomer, unassigned) [Compound 69] : what is it?
-- reply 13.9

-- ask Would you mind doing C=CC(=O)Nc1cc(Nc2ncnc(Nc3cc(Cl)c(F)cc3C(C)(O)CC)n2)c(OC)cc1N1CC[C@@H](N(C)C)C1 (single isomer, unassigned) [Compound 70] as well?
-- reply 88.9

* * *

target: WT EGFR (Homo sapiens, UniProt P00533); test: WT EGFR cellular phosphorylation inhibition in A-431 (hEGF stimulated, MSD); conditions: A431 cells, 4 h compound, then 100 ng/ml hEGF 10 min;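 further: electrochemiluminescence read-out of EGFR Tyr1068 phosphorylation expressed as ratio to total EGFR, cells kept in medium with 1% FBS, compounds tested as a concentration series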
Sequence (P00533 25-1210): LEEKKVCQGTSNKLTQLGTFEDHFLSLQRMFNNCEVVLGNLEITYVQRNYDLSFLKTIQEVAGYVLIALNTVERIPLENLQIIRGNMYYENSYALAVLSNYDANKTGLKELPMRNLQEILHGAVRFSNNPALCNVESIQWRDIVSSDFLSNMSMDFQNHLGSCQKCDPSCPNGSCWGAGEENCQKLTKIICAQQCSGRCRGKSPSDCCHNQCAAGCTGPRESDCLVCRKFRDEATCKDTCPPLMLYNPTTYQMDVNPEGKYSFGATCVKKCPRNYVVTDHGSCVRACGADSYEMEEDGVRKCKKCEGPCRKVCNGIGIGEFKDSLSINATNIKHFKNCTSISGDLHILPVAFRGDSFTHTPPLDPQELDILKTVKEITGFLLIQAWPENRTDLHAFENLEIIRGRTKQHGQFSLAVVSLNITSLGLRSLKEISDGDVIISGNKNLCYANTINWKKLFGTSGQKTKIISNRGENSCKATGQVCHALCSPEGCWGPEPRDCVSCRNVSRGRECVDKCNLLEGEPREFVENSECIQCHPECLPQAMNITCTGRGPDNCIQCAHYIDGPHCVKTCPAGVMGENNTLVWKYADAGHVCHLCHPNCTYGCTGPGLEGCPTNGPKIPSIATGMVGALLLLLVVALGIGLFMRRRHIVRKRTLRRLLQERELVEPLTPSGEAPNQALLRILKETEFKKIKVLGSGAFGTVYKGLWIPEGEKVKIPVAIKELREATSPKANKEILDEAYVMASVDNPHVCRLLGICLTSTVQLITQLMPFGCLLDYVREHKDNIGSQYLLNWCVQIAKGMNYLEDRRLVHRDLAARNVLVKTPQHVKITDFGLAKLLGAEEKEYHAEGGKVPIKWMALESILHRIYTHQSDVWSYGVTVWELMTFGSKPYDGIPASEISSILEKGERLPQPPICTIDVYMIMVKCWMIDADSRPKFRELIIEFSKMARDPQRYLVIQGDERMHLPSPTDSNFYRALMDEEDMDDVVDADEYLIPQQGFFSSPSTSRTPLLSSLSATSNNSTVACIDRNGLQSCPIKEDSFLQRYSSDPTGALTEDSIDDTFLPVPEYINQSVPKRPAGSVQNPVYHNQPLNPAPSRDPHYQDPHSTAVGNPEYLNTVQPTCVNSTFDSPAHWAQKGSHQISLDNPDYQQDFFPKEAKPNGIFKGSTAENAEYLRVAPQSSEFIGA
Counter-ions that a name gives are not always drawn.
A collection of compounds and their measured pIC50
Reminder that pIC50 means the negative base-10 logarithm of the concentration expressed in mol/L.

Some compounds with known pIC50 results, for comparison:
{"COMPOUND": "C=CC(=O)Nc1cc(Nc2ncnc(Nc3cc(Cl)c(F)cc3C(C)(C)O)n2)c(OC)cc1N(C)C[C@H]1CCCN1C", "TESTED TARGET": "WT EGFR (Homo sapiens, UniProt P00533)", "pIC50": 7.88}
{"COMPOUND": "C=CC(=O)Nc1cc(Nc2ncnc(Nc3cc4cc[nH]c4cc3C(C)(C)O)n2)c(OC)cc1N(C)CCN(C)C", "TESTED TARGET": "WT EGFR (Homo sapiens, UniProt P00533)", "pIC50": 8.46}
{"COMPOUND": "C=CC(=O)Nc1cc(Nc2ncnc(Nc3cc(Cl)c(F)cc3C(C)(O)CC)n2)c(OC)cc1N1CCC[C@H]1CN(C)C (stereo partly shown)", "TESTED TARGET": "WT EGFR (Homo sapiens, UniProt P00533)", "pIC50": 6.26}
{"COMPOUND": "C=CC(=O)Nc1cc(Nc2nccc(Nc3cc(Cl)c(Cl)cc3C(C)(C)O)n2)c(OC)cc1N1CC[C@@H](N(C)C)C1", "TESTED TARGET": "WT EGFR (Homo sapiens, UniProt P00533)", "pIC50": 6.87}
{"COMPOUND": "[2H]C([2H])([2H])N(CCN(C)c1cc(OC)c(Nc2ncnc(Nc3cc(F)c(Cl)cc3C(C)(C)O)n2)cc1NC(=O)C=C)C([2H])([2H])[2H]", "TESTED TARGET": "WT EGFR (Homo sapiens, UniProt P00533)", "pIC50": 8.02}

-- ask Reported pIC50 for C=CC(=O)Nc1cc(Nc2nccc(Nc3cc(Cl)c(F)cc3C(C)(C)O)n2)c(OC)cc1N1C[C@H]2CN(C)[C@H]2C1 [Compound 89, formic acid salt] : what is it?
-- reply 6.83

-- ask Would you mind doing C=CC(=O)Nc1cc(Nc2ncnc(Nc3cc(F)c(F)cc3C(C)(C)O)n2)c(OC)cc1N(C)CCN1CCCC1 as well?
-- reply 7.23

-- ask Would you mind doing C=CC(=O)Nc1cc(Nc2ncnc(Nc3cc(Cl)c(F)cc3C(C)(C)O)n2)c(OC)cc1N1CC[C@@H]1CN(C)C as well?
-- reply 7.72

-- ask Would you mind doing C=CC(=O)Nc1cc(Nc2ncnc(Nc3cc(Cl)c(F)cc3C(C)(C)O)n2)c(OC)cc1N1CCOC[C@@H]1CN(C)C as well?
-- reply 7.71

-- ask Would you mind doing C=CC(=O)Nc1cc(Nc2ncnc(Nc3cc4ccn(C)c4cc3C(C)(C)O)n2)c(OC)cc1N(C)CCN(C)C as well?
-- reply 7.96

-- ask Would you mind doing C=CC(=O)Nc1cc(Nc2ncnc(Nc3cc(F)c(F)cc3C(C)(C)O)n2)c(OC)cc1N1CCOC[C@@H]1CN(C)C as well?
-- reply 7.86

-- ask Would you mind doing C=CC(=O)Nc1cc(Nc2ncnc(Nc3cc(F)c(F)cc3C(C)(O)CC)n2)c(OC)cc1N1CC[C@@H]2CN(C)C[C@@H]21 (stereo partly shown) as well?
-- reply 7.62

-- ask Would you mind doing C=CC(=O)Nc1cc(Nc2ncnc(Nc3cc(Cl)c(F)cc3C(C)(C)O)n2)c(OC)cc1N(C)CCN(C)C as well?
-- reply 8.12

* * *

test system: Ba/F3 EGFR ASV ins cells; test: Cell proliferation, Ba/F3 EGFR ASV ins (CellTiter-Glo, 72 h); assay type: cell-based; conditions: Ba/F3 EGFR, 72 h, Ba/F3 EGFR ASV ins, 72 h proliferation; read-out: EGFR Exon20 ASV insertion GI50;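 further: IL3-independent Ba/F3 cells transduced with EGFR V769_D770insASV, cellular ATP luminescence after compound exposure, growth relative to DMSO control with the day-0 baseline reading subtracted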
A collection of molecules and their measured log10(GI50)
Hey, these are logged values: log10 of GI50, nM being the unit before logging.

Some molecules with known log10(GI50) results, for comparison:
{"MOLECULE": "C=CC(=O)Nc1cc(Nc2ncnc(Nc3ccccc3C3(O)COC3)n2)c(OC)cc1N(C)CCN(C)C [Compound 10]", "log10(GI50)": 2.30}
{"MOLECULE": "C=CC(=O)Nc1cc(Nc2ncnc(Nc3cc(F)c(Cl)cc3C(C)(C)O)n2)c(OC)cc1N1CCC[C@@H]1CN(C)C [Compound 43]", "log10(GI50)": 0.97}
{"MOLECULE": "C=CC(=O)Nc1cc(Nc2ncnc(Nc3cc(F)c(F)cc3C(C)(C)O)n2)c(OC)cc1N1CC[C@@H]1CN(C)C [Compound 19]", "log10(GI50)": 1.91}
{"MOLECULE": "C=CC(=O)Nc1cc(Nc2ncnc(Nc3cc(Cl)c(Cl)cc3C(C)(C)O)n2)c(OC)cc1N(C)CCN(C)C [Compound 15]", "log10(GI50)": 1.32}
{"MOLECULE": "C=CC(=O)Nc1cc(Nc2ncnc(Nc3cc(Cl)c(F)cc3C(C)(C)O)n2)c(OC)cc1N1CC[C@@H](NC)C1 [Compound 73]", "log10(GI50)": 1.44}

-- ask Reported log10(GI50) for C=CC(=O)Nc1cc(Nc2ncnc(Nc3cc(Cl)c(F)cc3C(C)(O)CC)n2)c(OC)cc1N1CCC[C@@H]1CN(C)C (stereo partly shown) [Compound 63] : what is it?
-- reply 1.13

-- ask Would you mind doing C=CC(=O)Nc1cc(Nc2ncnc(Nc3ccc4[nH]ccc4c3C(C)(C)O)n2)c(OC)cc1N(C)CCN(C)C [Compound 94] as well?
-- reply 1.91

* * *

molecular target: EGFR L858R&T790M (Homo sapiens, UniProt P00533, L858R/T790M); assay: EGFR L858R and T790M cellular phosphorylation inhibition in NCI-H1975 (MSD); conditions: NCI-H1975 cells, 4 h compound, p-EGFR(Y1068)/total EGFR; read-out: EGFR L858R and T790M mutation IC50;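 further: phosphorylated and total EGFR detected by electrochemiluminescence, cells exposed to compound in medium containing 1% FBS at 37 °C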
Sequence (P00533 25-1210 T790M/L858R): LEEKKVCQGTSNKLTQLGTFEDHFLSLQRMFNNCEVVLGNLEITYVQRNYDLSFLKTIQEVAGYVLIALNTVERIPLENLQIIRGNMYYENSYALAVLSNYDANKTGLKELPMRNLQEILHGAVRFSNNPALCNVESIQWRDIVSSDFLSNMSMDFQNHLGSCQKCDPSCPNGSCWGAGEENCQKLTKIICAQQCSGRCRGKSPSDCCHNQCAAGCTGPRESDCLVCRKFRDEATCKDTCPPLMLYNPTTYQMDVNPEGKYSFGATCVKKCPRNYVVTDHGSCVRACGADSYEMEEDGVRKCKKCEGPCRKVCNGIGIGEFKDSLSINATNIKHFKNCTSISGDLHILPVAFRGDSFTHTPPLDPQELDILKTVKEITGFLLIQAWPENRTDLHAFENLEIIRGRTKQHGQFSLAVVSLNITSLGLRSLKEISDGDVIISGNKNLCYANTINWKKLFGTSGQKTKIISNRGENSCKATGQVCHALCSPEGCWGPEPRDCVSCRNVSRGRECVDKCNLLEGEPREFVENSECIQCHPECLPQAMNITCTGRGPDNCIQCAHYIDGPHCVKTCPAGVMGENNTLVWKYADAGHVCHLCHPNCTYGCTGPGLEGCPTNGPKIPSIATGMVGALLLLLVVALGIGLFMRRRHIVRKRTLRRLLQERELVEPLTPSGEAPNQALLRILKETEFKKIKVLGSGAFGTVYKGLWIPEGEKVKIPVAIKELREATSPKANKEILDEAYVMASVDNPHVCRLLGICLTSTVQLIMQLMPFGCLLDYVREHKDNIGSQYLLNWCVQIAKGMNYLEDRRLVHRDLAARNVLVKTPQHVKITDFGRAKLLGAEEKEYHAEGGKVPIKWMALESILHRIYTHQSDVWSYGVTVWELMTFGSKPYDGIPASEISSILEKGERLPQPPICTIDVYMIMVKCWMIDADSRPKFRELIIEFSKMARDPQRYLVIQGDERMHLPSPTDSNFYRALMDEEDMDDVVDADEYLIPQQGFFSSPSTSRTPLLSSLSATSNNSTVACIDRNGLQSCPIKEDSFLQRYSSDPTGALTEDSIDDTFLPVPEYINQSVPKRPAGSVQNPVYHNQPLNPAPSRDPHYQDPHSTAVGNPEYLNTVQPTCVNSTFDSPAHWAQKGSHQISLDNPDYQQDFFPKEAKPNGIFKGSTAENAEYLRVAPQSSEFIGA
Where a name gives a salt, the structure may show the parent alone.
Classification field. Basis: IC50. Definitions: lower = under 0.9 nM, middle = from 0.9 nM up to 2 nM, upper = 2 nM and over

Example entries and their recorded answers appear below.
{"COMPOUND": "COc1cc(N(C)CCN(C)C)c(NC(=O)/C=C/CN(C)C)cc1Nc1ncnc(Nc2cc(F)c(F)cc2C(C)(C)O)n1 [Compound 5]", "CAT": "upper"}
{"COMPOUND": "C=CC(=O)Nc1cc(Nc2ncnc(Nc3cc(Cl)c(F)cc3C(C)(C)O)n2)c(OC)cc1N(C)C[C@@H]1CCCN1C [Compound 44]", "CAT": "lower"}
{"COMPOUND": "C=CC(=O)Nc1cc(Nc2ncnc(Nc3cc(F)c(F)cc3C(C)(C)O)n2)c(OC)cc1N1CC(CN(C)C)C1 [Compound 23]", "CAT": "middle"}
{"COMPOUND": "C=CC(=O)Nc1cc(Nc2ncnc(Nc3cc(F)c(F)cc3C(C)(O)CC)n2)c(OC)cc1N1CCC[C@H]1CN(C)C (stereo partly shown) [Compound 58]", "CAT": "upper"}
{"COMPOUND": "C=CC(=O)Nc1cc(Nc2ncnc(Nc3cc(Cl)c(F)cc3C(C)(O)CC)n2)c(OC)cc1N1CC[C@@H](N(C)C)C1 (single isomer, unassigned) [Compound 70]", "CAT": "middle"}
{"COMPOUND": "C=CC(=O)Nc1cc(Nc2nccc(Nc3cc(Cl)c(F)cc3C(C)(C)O)n2)c(OC)cc1N1C[C@@H]2CN(C)[C@@H]2C1 [Compound 97, formic acid salt]", "CAT": "lower"}

-- ask Hello team, could you let me know which band the following compound falls into: C=CC(=O)Nc1cc(Nc2ncnc(Nc3cc(Cl)c(F)cc3C(C)(C)O)n2)c(OC)cc1N1CC(CN(C)C)C1 [Compound 39]
-- reply middle

-- ask Would you mind doing C=CC(=O)Nc1cc(Nc2nccc(Nc3cc(Cl)c(Cl)cc3C(C)(C)O)n2)c(OC)cc1N1CC[C@@H](N(C)C)C1 [Compound 68] as well?
-- reply middle

-- ask Would you mind doing C=CC(=O)Nc1cc(Nc2ncnc(Nc3cc(F)c(F)cc3C(C)(C)O)n2)c(OC)cc1N1CC[C@H]2CN(C)C[C@H]21 [Compound 25] as well?
-- reply upper

-- ask Would you mind doing C=CC(=O)Nc1cc(Nc2nccc(Nc3cc(Cl)c(F)cc3C(C)(C)O)n2)c(OC)cc1N1C[C@H](F)C[C@@H]1CN(C)C [Compound 88, formic acid salt] as well?
-- reply lower
